Overview of recorded IC50 for various compounds
- System: Entamoeba histolytica
- assay.remarks: Antiamoebic activity against Entamoeba histolytica
- Type: functional, organism-based
Respond numerically; units are µg/mL and should not be typed.

| compound | IC50 [µg/mL] |
| --- | --- |
| COc1cc2c3cc1Oc1c(OC)c(OC)cc4c1[C@H](Cc1ccc(cc1)Oc1cc(ccc1O)C[C@H]3N(C)CC2)N(C)CC4 (stereo in doubt; 117) [AROMOLINE] | 19.64 |
| COc1ccc2cc1Oc1ccc(cc1)C[C@H]1c3cc(c(OC)cc3CCN1C)Oc1c(OC)c(OC)cc3c1[C@H](C2)N(C)CC3 (stereo in doubt; 145) [FANCHININ] | 25.16 |
| COc1cc2c3cc1Oc1c(OC)c(OC)cc4c1[C@H](Cc1ccc(cc1)Oc1cc(ccc1O)C[C@H]3N(C)CC2)N(C)CC4 (stereo in doubt; 13) [AROMOLINE] | 2.99 |

IC50 in this record for COc1ccc2cc1Oc1ccc(cc1)C[C@H]1c3cc(c(OC)cc3CCN1C)Oc1c(OC)c(OC)cc3c1[C@H](C2)N(C)CC3 (stereo in doubt; 146) [FANCHININ] : 10.51

These measurements were taken from ChEMBL document CHEMBL3046784.
